Source of measurements: patent US20240108702A1

run_description: in vivo
stated_conditions: both, cynomolgus monkey, iv, 0.3 mg/kg, AUC0-∞, cynomolgus, 0.3 mg/kg i.v., Day 1, mean
Where a SMILES comes first, the peptide text is derived from it. Bridges are numbered along the chain shown (N, C = ends).

{"columns": ["molecule", "AUC(0-inf), ng·h/mL"],
 "data": [
  ["CC[C@H](C)[C@@H]1NC(=O)[C@@H]2CSSC[C@H](NC(=O)[C@H](CCCNC(=N)N)NC(=O)[C@@H]3CSSC[C@H](NC1=O)C(=O)N[C@@H]([C@@H](C)O)C(=O)N[C@@H](CCCNC(=N)N)C(=O)NCC(=O)N[C@@H](Cc1ccccc1)C(=O)N3)C(=O)N[C@@H](CC(C)C)C(=O)N[C@H]1CSSC[C@H](NC(=O)[C@H](C(C)C)NC(=O)CNC(=O)[C@H](CCCNC(=N)N)NC(=O)[C@H](CCCNC(=N)N)NC1=O)C(=O)N[C@@H](CCCNC(=N)N)C(=O)N2 [Peptide 1] (cyclo(GFCRCLCRRGVCRCICTR); disulfide 3-16, 5-14, 7-12)", 617]
]}

====

run_description: in vivo
stated_conditions: both, cynomolgus monkey, iv, 5 mg/kg/day, Vss, cynomolgus, 5 mg/kg/day i.v., Day 10, mean
Where a SMILES comes first, the peptide text is derived from it. Bridges are numbered along the chain shown (N, C = ends).

{"columns": ["molecule", "Vd"],
 "data": [
  ["CC[C@H](C)[C@@H]1NC(=O)[C@@H]2CSSC[C@H](NC(=O)[C@H](CCCNC(=N)N)NC(=O)[C@@H]3CSSC[C@H](NC1=O)C(=O)N[C@@H]([C@@H](C)O)C(=O)N[C@@H](CCCNC(=N)N)C(=O)NCC(=O)N[C@@H](Cc1ccccc1)C(=O)N3)C(=O)N[C@@H](CC(C)C)C(=O)N[C@H]1CSSC[C@H](NC(=O)[C@H](C(C)C)NC(=O)CNC(=O)[C@H](CCCNC(=N)N)NC(=O)[C@H](CCCNC(=N)N)NC1=O)C(=O)N[C@@H](CCCNC(=N)N)C(=O)N2 [Peptide 1] (cyclo(GFCRCLCRRGVCRCICTR); disulfide 3-16, 5-14, 7-12)", "0.645 L/kg"]
]}

====

run_description: in vivo
stated_conditions: both, cynomolgus monkey, iv, 15 mg/kg/day, Cmax, cynomolgus, 15 mg/kg/day i.v., Day 7, mean
Where a SMILES comes first, the peptide text is derived from it. Bridges are numbered along the chain shown (N, C = ends).

{"columns": ["compound", "Cmax"],
 "data": [
  ["CC[C@H](C)[C@@H]1NC(=O)[C@@H]2CSSC[C@H](NC(=O)[C@H](CCCNC(=N)N)NC(=O)[C@@H]3CSSC[C@H](NC1=O)C(=O)N[C@@H]([C@@H](C)O)C(=O)N[C@@H](CCCNC(=N)N)C(=O)NCC(=O)N[C@@H](Cc1ccccc1)C(=O)N3)C(=O)N[C@@H](CC(C)C)C(=O)N[C@H]1CSSC[C@H](NC(=O)[C@H](C(C)C)NC(=O)CNC(=O)[C@H](CCCNC(=N)N)NC(=O)[C@H](CCCNC(=N)N)NC1=O)C(=O)N[C@@H](CCCNC(=N)N)C(=O)N2 [Peptide 1] (cyclo(GFCRCLCRRGVCRCICTR); disulfide 3-16, 5-14, 7-12)", "32800 ng/mL"]
]}

====

run_description: in vivo
stated_conditions: both, cynomolgus monkey, iv, 15 mg/kg, Cmax, cynomolgus, 15 mg/kg i.v., Day 1, mean
Where a SMILES comes first, the peptide text is derived from it. Bridges are numbered along the chain shown (N, C = ends).
measured_attribute: Cmax (µg/mL)

{"columns": ["molecule", "val"],
 "data": [
  ["CC[C@H](C)[C@@H]1NC(=O)[C@@H]2CSSC[C@H](NC(=O)[C@H](CCCNC(=N)N)NC(=O)[C@@H]3CSSC[C@H](NC1=O)C(=O)N[C@@H]([C@@H](C)O)C(=O)N[C@@H](CCCNC(=N)N)C(=O)NCC(=O)N[C@@H](Cc1ccccc1)C(=O)N3)C(=O)N[C@@H](CC(C)C)C(=O)N[C@H]1CSSC[C@H](NC(=O)[C@H](C(C)C)NC(=O)CNC(=O)[C@H](CCCNC(=N)N)NC(=O)[C@H](CCCNC(=N)N)NC1=O)C(=O)N[C@@H](CCCNC(=N)N)C(=O)N2 [Peptide 1] (cyclo(GFCRCLCRRGVCRCICTR); disulfide 3-16, 5-14, 7-12)", 46.5]
]}

====

run_description: in vivo
stated_conditions: both, cynomolgus monkey, iv, 5 mg/kg, CL, cynomolgus, 5 mg/kg i.v., Day 1, mean
Where a SMILES comes first, the peptide text is derived from it. Bridges are numbered along the chain shown (N, C = ends).
measured_attribute: clearance (mL/min/kg)

{"columns": ["compound", "val"],
 "data": [
  ["CC[C@H](C)[C@@H]1NC(=O)[C@@H]2CSSC[C@H](NC(=O)[C@H](CCCNC(=N)N)NC(=O)[C@@H]3CSSC[C@H](NC1=O)C(=O)N[C@@H]([C@@H](C)O)C(=O)N[C@@H](CCCNC(=N)N)C(=O)NCC(=O)N[C@@H](Cc1ccccc1)C(=O)N3)C(=O)N[C@@H](CC(C)C)C(=O)N[C@H]1CSSC[C@H](NC(=O)[C@H](C(C)C)NC(=O)CNC(=O)[C@H](CCCNC(=N)N)NC(=O)[C@H](CCCNC(=N)N)NC1=O)C(=O)N[C@@H](CCCNC(=N)N)C(=O)N2 [Peptide 1] (cyclo(GFCRCLCRRGVCRCICTR); disulfide 3-16, 5-14, 7-12)", 3.13]
]}

====

run_description: in vivo
stated_conditions: both, Sprague-Dawley, rat, iv, 5 mg/kg
Where a SMILES comes first, the peptide text is derived from it. Bridges are numbered along the chain shown (N, C = ends).
measured_attribute: Vd (L/kg)

{"columns": ["compound", "val"],
 "data": [
  ["CC[C@H](C)[C@@H]1NC(=O)[C@@H]2CSSC[C@H](NC(=O)[C@H](CCCNC(=N)N)NC(=O)[C@@H]3CSSC[C@H](NC1=O)C(=O)N[C@@H]([C@@H](C)O)C(=O)N[C@@H](CCCNC(=N)N)C(=O)NCC(=O)N[C@@H](Cc1ccccc1)C(=O)N3)C(=O)N[C@@H](CC(C)C)C(=O)N[C@H]1CSSC[C@H](NC(=O)[C@H](C(C)C)NC(=O)CNC(=O)[C@H](CCCNC(=N)N)NC(=O)[C@H](CCCNC(=N)N)NC1=O)C(=O)N[C@@H](CCCNC(=N)N)C(=O)N2 [Peptide 1] (cyclo(GFCRCLCRRGVCRCICTR); disulfide 3-16, 5-14, 7-12)", 1.46]
]}

====

run_description: in vivo
stated_conditions: both, cynomolgus monkey, iv, 15 mg/kg, AUC0-∞, cynomolgus, 15 mg/kg i.v., Day 1, mean
Where a SMILES comes first, the peptide text is derived from it. Bridges are numbered along the chain shown (N, C = ends).

{"columns": ["compound", "AUC(0-inf)"],
 "data": [
  ["CC[C@H](C)[C@@H]1NC(=O)[C@@H]2CSSC[C@H](NC(=O)[C@H](CCCNC(=N)N)NC(=O)[C@@H]3CSSC[C@H](NC1=O)C(=O)N[C@@H]([C@@H](C)O)C(=O)N[C@@H](CCCNC(=N)N)C(=O)NCC(=O)N[C@@H](Cc1ccccc1)C(=O)N3)C(=O)N[C@@H](CC(C)C)C(=O)N[C@H]1CSSC[C@H](NC(=O)[C@H](C(C)C)NC(=O)CNC(=O)[C@H](CCCNC(=N)N)NC(=O)[C@H](CCCNC(=N)N)NC1=O)C(=O)N[C@@H](CCCNC(=N)N)C(=O)N2 [Peptide 1] (cyclo(GFCRCLCRRGVCRCICTR); disulfide 3-16, 5-14, 7-12)", "142 µg·h/mL"]
]}

====

run_description: in vivo
stated_conditions: both, cynomolgus monkey, iv, 10 mg/kg, Cmax, cynomolgus, 10 mg/kg i.v., Day 1, mean
Where a SMILES comes first, the peptide text is derived from it. Bridges are numbered along the chain shown (N, C = ends).

{"columns": ["compound", "Cmax"],
 "data": [
  ["CC[C@H](C)[C@@H]1NC(=O)[C@@H]2CSSC[C@H](NC(=O)[C@H](CCCNC(=N)N)NC(=O)[C@@H]3CSSC[C@H](NC1=O)C(=O)N[C@@H]([C@@H](C)O)C(=O)N[C@@H](CCCNC(=N)N)C(=O)NCC(=O)N[C@@H](Cc1ccccc1)C(=O)N3)C(=O)N[C@@H](CC(C)C)C(=O)N[C@H]1CSSC[C@H](NC(=O)[C@H](C(C)C)NC(=O)CNC(=O)[C@H](CCCNC(=N)N)NC(=O)[C@H](CCCNC(=N)N)NC1=O)C(=O)N[C@@H](CCCNC(=N)N)C(=O)N2 [Peptide 1] (cyclo(GFCRCLCRRGVCRCICTR); disulfide 3-16, 5-14, 7-12)", "26700 ng/mL"]
]}
